assay: Drug level in epithelial lining fluid of healthy human at 0.3 […], iv after 0.5 hrs; type: ADME, organism-based; settings: read-out: Drug uptake
Metric name: concentration at 0.5 h (ng/mL)
Give bare numbers, in ng/mL.

[in] Entry C[C@@H](O)[C@H]1C(=O)N2C(C(=O)[O-])=C(SC3Cn4cnc[n+]4C3)[C@H](C)[C@H]12 (stereo partly specified) has what concentration at 0.5 h?
[out] 3480

----------
experiment: AUC in plasma of healthy human at 0.3 […], iv after 0.5 hrs; assay type: ADME, organism-based; set-up: time < 0.5 hr, route intravenous
Metric name: AUC at 0.5 h (ng·h/mL)
Give bare numbers, in ng·h/mL.

[in] What value of AUC at 0.5 h has been reported for the following molecule? C[C@@H](O)[C@H]1C(=O)N2C(C(=O)[O-])=C(SC3Cn4cnc[n+]4C3)[C@H](C)[C@H]12 (stereo partly specified)
[out] 25000

----------
test: AUC in epithelial lining fluid of healthy human at 0.3 […], iv after 3 hrs; type: ADME, organism-based; parameters: time < 3 hr, route intravenous
Metric name: AUC at 3 h (ng·h/mL)
One number for each entry, in ng·h/mL.

[in] Fill in: AUC at 3 h of C[C@@H](O)[C@H]1C(=O)N2C(C(=O)[O-])=C(SC3Cn4cnc[n+]4C3)[C@H](C)[C@H]12 (stereo partly specified) [BIAPENEM] is ___
[out] 13300

----------
assay: Cmax in epithelial lining fluid of healthy human at 0.3 […], iv after 3 hrs; assay type: ADME, organism-based; parameters: route intravenous
Metric name: Cmax
Note to self: number, then unit, no commentary.

[in] Would you kindly share the measured Cmax for C[C@@H](O)[C@H]1C(=O)N2C(C(=O)[O-])=C(SC3Cn4cnc[n+]4C3)[C@H](C)[C@H]12 (stereo partly specified) ?
[out] 4360 ng/mL

----------
test: Drug level in epithelial lining fluid of healthy human at 0.3 […], iv after 3 hrs; assay type: ADME, organism-based; conditions: read-out: Drug uptake
Metric name: concentration at 3 h (ng/mL)
Answers are plain numbers, in ng/mL.

[in] So what does the record say about concentration at 3 h for C[C@@H](O)[C@H]1C(=O)N2C(C(=O)[O-])=C(SC3Cn4cnc[n+]4C3)[C@H](C)[C@H]12 (stereo partly specified) ?
[out] 1330

----------
experiment: Tmax in epithelial lining fluid of healthy human at 0.3 […], iv after 3 hrs; type: ADME, organism-based
Metric name: Tmax (h)
Answers are plain numbers, in h.

[in] Need Tmax, item C[C@@H](O)[C@H]1C(=O)N2C(C(=O)[O-])=C(SC3Cn4cnc[n+]4C3)[C@H](C)[C@H]12 (stereo partly specified)
[out] 1.8

----------
assay: Tmax in plasma of healthy human at 0.3 […], iv after 3 hrs; format: ADME, organism-based
Metric name: Tmax (h)
Give bare numbers, in h.

[in] Can you look up the measured Tmax of C[C@@H](O)[C@H]1C(=O)N2C(C(=O)[O-])=C(SC3Cn4cnc[n+]4C3)[C@H](C)[C@H]12 (stereo partly specified) for me?
[out] 3

----------
experiment: Cmax in plasma of healthy human at 0.3 […], iv after 0.5 hrs; format: ADME, organism-based; set-up: route intravenous
Metric name: Cmax

[in] State the recorded Cmax for this entry: C[C@@H](O)[C@H]1C(=O)N2C(C(=O)[O-])=C(SC3Cn4cnc[n+]4C3)[C@H](C)[C@H]12 (stereo partly specified)
[out] 18100 ng/mL

Reference source for all entries: ChEMBL document CHEMBL1649497
